- Assay Overview: Caco-2 Permeability Assay
- Format: in vitro ADME
- Condition Context: human, apparent permeability A to B, compound at 10 μM, apical buffer pH 6.0, basolateral buffer pH 7.4, read-out: Papp (cm/sec, *10^−6)
Decision: Papp A→B at 10 μM >= 20 ×10⁻⁶ cm/s yields met, all other cases yield not met.

## Task Test whether the compound `CC[C@H]1C[C@@H](n2c(=O)nc(-c3cnn(C)c3)c3oc4cc(F)c(-c5cnn(C)c5)cc4c32)CCO1` records Papp A→B at 10 μM of 20 ×10⁻⁶ cm/s or higher.
## Result met

## Task Given the entry CNc1ccc(-c2nc(=O)n(CCC3CCCO3)c3c2oc2ccc(-c4cnco4)cc23)cn1 (stereo not shown) , answer whether its Papp A→B at 10 μM meets or surpasses 20 ×10⁻⁶ cm/s.
## Result not met

## Task Does Papp A→B at 10 μM meet or surpass 20 ×10⁻⁶ cm/s for `CC[C@H]1C[C@@H](n2c(=O)nc(-c3cnn(C)c3)c3oc4cnc(-c5cnn(CCOC)c5)cc4c32)CCO1` ?
## Result not met

## Task Reported Papp A→B at 10 μM at or above 20 ×10⁻⁶ cm/s? `CC[C@H]1C[C@@H](n2c(=O)nc(-c3cnn(C)c3)c3oc4ccc(-c5cnn(CC)c5)cc4c32)CCO1`
## Result met

## Task Given `CC[C@H]1C[C@@H](n2c(=O)nc(-c3ccc(OC)nc3)c3oc4ccc(-c5cn(C)cn5)nc4c32)CCO1` , state whether its Papp A→B at 10 μM is at least 20 ×10⁻⁶ cm/s.
## Result met

## Task Reported Papp A→B at 10 μM at or above 20 ×10⁻⁶ cm/s? `CC[C@H]1C[C@@H](n2c(=O)nc(-c3cnn(C)c3)c3oc4ccc(-c5cn(C)cn5)nc4c32)C[C@@H](C)O1`
## Result met

## Task Form field: Papp A→B at 10 μM at least 20 ×10⁻⁶ cm/s? Entry: CN(C)c1ccc(-c2nc(=O)n(CCC3CCCO3)c3c2oc2cc(F)c(-c4cnn(C)c4)cc23)cn1 (stereo not shown)
## Result not met

## Task Is reported Papp A→B at 10 μM greater than or equal to 20 ×10⁻⁶ cm/s here: `CC[C@H]1C[C@@H](n2c(=O)nc(-c3cnn(C)c3)c3oc4c(C)cc(-c5cnn(C)c5)cc4c32)CCO1`
## Result not met

## Task Does the compound CCn1cc(-c2cnc3oc4c(-c5ccc(NC)nc5)nc(=O)n(CCC5CCCCO5)c4c3c2)cn1 (stereo not shown) have recorded Papp A→B at 10 μM that is 20 ×10⁻⁶ cm/s or more?
## Result not met

## Task Check this compound for Papp A→B at 10 μM at or above 20 ×10⁻⁶ cm/s: `CC[C@H]1C[C@@H](n2c(=O)nc(-c3cnn(C)c3)c3oc4ccc(-c5cccnc5)nc4c32)CCO1`
## Result not met

## Task Does the compound CNc1ccc(-c2nc(=O)n(CCC3CCCO3)c3c2oc2ncc(-c4cnco4)cc23)cn1 (stereo not shown) have recorded Papp A→B at 10 μM that is 20 ×10⁻⁶ cm/s or more?
## Result not met

## Task Exam item: decide whether the reported Papp A→B at 10 μM for CC[C@@H]1C[C@H](n2c(=O)nc(-c3ccc(NC)nc3)c3oc4ccc(-c5cnn(C)c5)cc4c32)CO1 (racemic) is at least 20 ×10⁻⁶ cm/s.
## Result not met
